Molecular target: human AspH (His6-AspH315–758) (Homo sapiens, UniProt Q12797)
Construct: N-Terminally His6-tagged human AspH315–758 (His6-AspH315–758) was produced in Escherichia coli BL21 (DE3) cells; made in house; host or cells: Escherichia coli BL21 (DE3), pET-28a(+) vector
Sequence (Q12797 315-758): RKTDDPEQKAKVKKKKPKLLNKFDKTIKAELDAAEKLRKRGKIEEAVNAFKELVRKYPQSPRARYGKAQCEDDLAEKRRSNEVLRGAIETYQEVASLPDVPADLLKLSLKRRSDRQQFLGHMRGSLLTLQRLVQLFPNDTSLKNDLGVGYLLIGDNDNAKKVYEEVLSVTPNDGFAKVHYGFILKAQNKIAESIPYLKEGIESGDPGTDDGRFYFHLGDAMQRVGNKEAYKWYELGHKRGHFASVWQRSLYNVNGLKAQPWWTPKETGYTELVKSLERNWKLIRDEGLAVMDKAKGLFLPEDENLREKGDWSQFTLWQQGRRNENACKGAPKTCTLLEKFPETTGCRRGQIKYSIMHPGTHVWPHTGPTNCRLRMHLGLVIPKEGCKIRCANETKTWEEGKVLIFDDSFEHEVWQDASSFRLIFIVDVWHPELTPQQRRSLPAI
Assay: SPE-MS AspH inhibition assay (hFX-CP101-119 substrate hydroxylation)
Assay type: biochemical
Details: AspH-inhibitor screening, Plate 1-duplicate, substrate conversion
Threshold rule: Plate 1-duplicate (% conversion) greater than or equal to 50% is yes; below that, no.

Solved cases below.
CC1=C(/C=C/C(C)=C/C=C/C(C)=C/C(=O)O)C(C)(C)CCC1 | no
COc1ccc(C2=N[C@@H](c3ccc(Cl)cc3)[C@@H](c3ccc(Cl)cc3)N2C(=O)N2CCNC(=O)C2)c(OC(C)C)c1 | yes
CO[C@H]1C[C@@H]2CC[C@@H](C)[C@@](O)(O2)C(=O)C(=O)N2CCCC[C@H]2C(=O)O[C@H]([C@H](C)C[C@@H]2CC[C@@H](OP(C)(C)=O)[C@H](OC)C2)CC(=O)[C@H](C)/C=C(\C)[C@@H](O)[C@@H](OC)C(=O)[C@H](C)C[C@H](C)/C=C/C=C/C=C/1C | no
C[C@]1(O)C[C@@H](c2nc(-c3ccc4ccc(-c5ccccc5)nc4c3)c3c(N)nccn32)C1 | yes
C[C@@H](CN1CC(=O)NC(=O)C1)N1CC(=O)NC(=O)C1 | no

Check this compound for Plate 1-duplicate (% conversion) at or above 50%: CC1(C)CCC(CN2CCN(c3ccc(C(=O)NS(=O)(=O)c4ccc(NCC5CCOCC5)c([N+](=O)[O-])c4)c(Oc4cnc5[nH]ccc5c4)c3)CC2)=C(c2ccc(Cl)cc2)C1 [Venetoclax, reference compound]
no

Values were extracted from paper PMC7588595.
